- EXPERIMENTAL SYSTEM: Acetylcholinesterase (Homo sapiens, UniProt P22303)
- Sequence (P22303 whole entry): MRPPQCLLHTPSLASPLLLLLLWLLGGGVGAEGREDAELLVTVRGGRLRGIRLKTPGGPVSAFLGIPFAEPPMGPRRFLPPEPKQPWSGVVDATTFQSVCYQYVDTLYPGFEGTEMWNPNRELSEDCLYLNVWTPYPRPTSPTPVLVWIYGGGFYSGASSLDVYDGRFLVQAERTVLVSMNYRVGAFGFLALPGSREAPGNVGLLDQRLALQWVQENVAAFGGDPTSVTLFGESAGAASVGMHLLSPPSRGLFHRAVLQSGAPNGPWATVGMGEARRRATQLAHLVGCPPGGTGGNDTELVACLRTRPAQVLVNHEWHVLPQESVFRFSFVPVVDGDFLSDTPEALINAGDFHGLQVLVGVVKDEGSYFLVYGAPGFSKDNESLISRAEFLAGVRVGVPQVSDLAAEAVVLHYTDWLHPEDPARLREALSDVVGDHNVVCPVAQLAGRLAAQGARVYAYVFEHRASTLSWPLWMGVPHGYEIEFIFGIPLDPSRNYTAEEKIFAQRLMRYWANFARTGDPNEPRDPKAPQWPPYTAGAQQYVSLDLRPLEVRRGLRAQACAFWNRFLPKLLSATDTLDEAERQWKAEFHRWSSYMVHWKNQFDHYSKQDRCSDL
- TEST METHOD NOTES: Inhibition of human AchE-induced amyloid beta (1 to 40) aggregation after 48 hrs by thioflavin T fluorescence spectroscopic method
ATTRIBUTE MEASURED: IC50 (µM)

MOLECULE | UNIT TEXT | REPORTED RESULT
O=C(CCCC1CCSS1)NCCCNc1c2c(nc3cc(Cl)ccc13)CCCC2 (stereo unspecified) | µM | 0.253

###

- EXPERIMENTAL SYSTEM: Acetylcholinesterase (Bos taurus)
- Sequence (P23795 whole entry): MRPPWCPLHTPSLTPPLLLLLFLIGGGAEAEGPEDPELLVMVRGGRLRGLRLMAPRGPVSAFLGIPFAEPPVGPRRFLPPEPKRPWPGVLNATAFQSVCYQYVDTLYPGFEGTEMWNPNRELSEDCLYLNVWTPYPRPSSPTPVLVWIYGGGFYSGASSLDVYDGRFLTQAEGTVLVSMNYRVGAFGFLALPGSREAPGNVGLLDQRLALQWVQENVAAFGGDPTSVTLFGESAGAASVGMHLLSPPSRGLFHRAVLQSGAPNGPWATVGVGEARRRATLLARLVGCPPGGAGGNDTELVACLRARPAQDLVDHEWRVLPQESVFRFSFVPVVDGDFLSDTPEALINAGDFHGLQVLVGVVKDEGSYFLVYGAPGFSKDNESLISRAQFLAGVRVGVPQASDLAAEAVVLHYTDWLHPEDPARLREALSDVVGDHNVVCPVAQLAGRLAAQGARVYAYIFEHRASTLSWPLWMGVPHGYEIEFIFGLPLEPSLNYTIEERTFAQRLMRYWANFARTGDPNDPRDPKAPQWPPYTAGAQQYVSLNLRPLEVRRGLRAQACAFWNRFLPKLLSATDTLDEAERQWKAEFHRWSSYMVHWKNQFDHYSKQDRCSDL
- TEST METHOD NOTES: Inhibition of bovine erythrocyte AchE using acetylthiocholine as substrate by Ellman's method
pIC50: −log10 of the molar value.
ATTRIBUTE MEASURED: pIC50

SMILES NOTATION | EXPERIMENTAL SYSTEM | REPORTED RESULT
O=C(CCCCCNc1c2c(nc3ccccc13)CCCC2)NCCc1c[nH]c2ccccc12 | Acetylcholinesterase (Bos taurus) | 9.00

###

As an illustration, consider measured IC50 for compounds on Acetylcholinesterase (Rattus norvegicus, UniProt P37136).
Sequence (P37136 whole entry): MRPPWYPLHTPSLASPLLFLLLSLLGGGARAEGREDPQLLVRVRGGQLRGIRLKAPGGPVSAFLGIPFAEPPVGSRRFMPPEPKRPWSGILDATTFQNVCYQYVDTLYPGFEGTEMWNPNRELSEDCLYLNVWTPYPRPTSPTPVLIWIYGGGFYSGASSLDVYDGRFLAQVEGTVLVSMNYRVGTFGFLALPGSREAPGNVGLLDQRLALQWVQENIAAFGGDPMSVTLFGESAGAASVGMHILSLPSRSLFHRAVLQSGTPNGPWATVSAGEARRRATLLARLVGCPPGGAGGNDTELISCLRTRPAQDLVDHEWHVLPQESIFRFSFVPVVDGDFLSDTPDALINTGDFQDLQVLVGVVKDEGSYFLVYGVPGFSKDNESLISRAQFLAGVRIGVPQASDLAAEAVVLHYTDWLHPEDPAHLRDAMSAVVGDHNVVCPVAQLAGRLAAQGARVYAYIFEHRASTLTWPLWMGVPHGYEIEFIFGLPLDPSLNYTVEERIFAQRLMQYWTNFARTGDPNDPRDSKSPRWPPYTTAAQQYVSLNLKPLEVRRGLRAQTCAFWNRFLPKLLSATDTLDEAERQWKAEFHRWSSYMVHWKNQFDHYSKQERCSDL

SMILES NOTATION | EXPERIMENTAL SYSTEM | IC50 [nM]
Clc1ccc2c(NCCCCCCCCNc3c4c(nc5ccccc35)CCCC4)c3c(nc2c1)CCCC3 | Acetylcholinesterase (Rattus norvegicus, UniProt P37136) | 0.07
Clc1ccc2c(NCCCCCCCCCNc3c4c(nc5c3CCCC5)CCCC4)c3c(nc2c1)CCCC3 | Acetylcholinesterase (Rattus norvegicus, UniProt P37136) | 0.3
c1ccc2c(NCCCCCCCCNc3c4c(nc5c3CCCC5)CCCC4)c3c(nc2c1)CCCC3 | Acetylcholinesterase (Rattus norvegicus, UniProt P37136) | 0.2

From: ChEMBL document CHEMBL4004782
